B1: Glucocorticoid receptor, residues 419 to 494; numbered along this chain, P04150 (parent)
chain: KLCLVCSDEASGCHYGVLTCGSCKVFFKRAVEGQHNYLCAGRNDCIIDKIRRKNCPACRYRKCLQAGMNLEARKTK

- Variants of: B1
- TEST_DETAILS: abundance fitness (aPCA) (normalised: wild type 0, dead -1); higher = more abundant; growth selection in yeast, the domain comes from the species named
- CONDITION_DESCRIPTION: Homo sapiens
// label = class 1 if abundance fitness is not less than -0.04, otherwise class 0

Previously resolved entries follow.
> print(dat)
   mutant.label  discrete.label
1          C39I         class 0
2          H35N         class 1
3          C13S         class 1

Data request: Determine whether measured abundance fitness meets or exceeds -0.04 for `E32C`
Data returned: class 1

Data request: Determine whether measured abundance fitness meets or exceeds -0.04 for `I46S`
Data returned: class 1

Data request: Determine whether measured abundance fitness meets or exceeds -0.04 for `C63N`
Data returned: class 0

Data request: Determine whether measured abundance fitness meets or exceeds -0.04 for `E9H`
Data returned: class 0

Data request: Determine whether measured abundance fitness meets or exceeds -0.04 for `K76N`
Data returned: class 1

Data request: Determine whether measured abundance fitness meets or exceeds -0.04 for `G33R`
Data returned: class 0
